# tested on: Peroxisome proliferator-activated receptor delta (Homo sapiens) (UniProt Q03181)
# Sequence (Q03181 whole entry, looked up): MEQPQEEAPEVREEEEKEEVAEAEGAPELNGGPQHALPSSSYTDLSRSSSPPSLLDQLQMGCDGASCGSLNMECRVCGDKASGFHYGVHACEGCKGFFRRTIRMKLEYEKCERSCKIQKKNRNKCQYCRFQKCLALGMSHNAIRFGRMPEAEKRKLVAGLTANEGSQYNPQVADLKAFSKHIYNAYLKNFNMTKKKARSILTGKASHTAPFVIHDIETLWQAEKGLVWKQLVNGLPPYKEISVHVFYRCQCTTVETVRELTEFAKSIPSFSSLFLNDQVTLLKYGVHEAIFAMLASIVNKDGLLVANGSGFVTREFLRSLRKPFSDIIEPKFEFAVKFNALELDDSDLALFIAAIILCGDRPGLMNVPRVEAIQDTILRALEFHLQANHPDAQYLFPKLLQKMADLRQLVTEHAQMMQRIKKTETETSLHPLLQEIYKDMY
# experiment summary: qHTS assay to identify small molecule agonists of the peroxisome proliferator-activated receptor delta (PPARd) signaling pathway (AID 743212);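 further: HEK293H cells with PPARd UAS beta-lactamase reporter GeneBLAzer system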
# condition: HEK293H PPARd-UAS-bla, beta-lactamase FRET ratio, 17 h; series mostly up to 62.6 µM
Results filed as inconclusive are left out. Activity calls are given as the source filed them. The call rests on the fitted dose curve.
value type: outcome

> print(dat)
                                    molecule                                 tested.on    result
 1  CCC(C)(C)C(=O)OC1=C(c2ccc(Cl)cc2Cl)C(=O)OC12CCCCC2  Peroxisome proliferator-activated receptor delta (Homo sapiens) (UniProt Q03181)  inactive
 2                                 BrC(Br)Br  Peroxisome proliferator-activated receptor delta (Homo sapiens) (UniProt Q03181)  inactive
 3     CC(C)N1C(=O)N(c2ccccc2)CSC1=NC(C)(C)C  Peroxisome proliferator-activated receptor delta (Homo sapiens) (UniProt Q03181)  inactive
 4        Fc1ccc(Oc2ccnc3cc(Cl)cc(Cl)c23)cc1  Peroxisome proliferator-activated receptor delta (Homo sapiens) (UniProt Q03181)  inactive
 5                CN(C)CCc1c[nH]c2cccc(O)c12  Peroxisome proliferator-activated receptor delta (Homo sapiens) (UniProt Q03181)  inactive
 6  Oc1ccc(C(c2ccc(O)cc2)(C(F)(F)F)C(F)(F)F)cc1  Peroxisome proliferator-activated receptor delta (Homo sapiens) (UniProt Q03181)  inactive
 7  CC1(C)[C@H](C(=O)O[C@H](C#N)c2cccc(Oc3ccccc3)c2)[C@@H]1/C=C(\Cl)C(F)(F)F  Peroxisome proliferator-activated receptor delta (Homo sapiens) (UniProt Q03181)  inactive
 8                                CC(C)(C)OO  Peroxisome proliferator-activated receptor delta (Homo sapiens) (UniProt Q03181)  inactive
 9                            CCCCCCCCCCCCBr  Peroxisome proliferator-activated receptor delta (Homo sapiens) (UniProt Q03181)  inactive
10               Clc1ccc(C(Cl)(Cl)Cl)c(Cl)c1  Peroxisome proliferator-activated receptor delta (Homo sapiens) (UniProt Q03181)  inactive
11       ClC(Cl)=C(c1ccc(Cl)cc1)c1ccc(Cl)cc1  Peroxisome proliferator-activated receptor delta (Homo sapiens) (UniProt Q03181)  inactive
12  O=[N+]([O-])c1ccc(Oc2ccc(C(F)(F)F)cc2[N+](=O)[O-])cc1  Peroxisome proliferator-activated receptor delta (Homo sapiens) (UniProt Q03181)  inactive
13  CCCN(CC)CC1COC2(CCC(C(C)(C)C)CC2)O1 (stereo unspecified)  Peroxisome proliferator-activated receptor delta (Homo sapiens) (UniProt Q03181)  inactive
14  CCc1nn(C)c(C(=O)NCc2ccc(C(C)(C)C)cc2)c1Cl  Peroxisome proliferator-activated receptor delta (Homo sapiens) (UniProt Q03181)  inactive
15     CC(=O)OC1(c2ccccc2)CCN(CCc2ccccc2)CC1  Peroxisome proliferator-activated receptor delta (Homo sapiens) (UniProt Q03181)  inactive
16  Clc1ccc(CCC(Cn2ccnc2)Sc2c(Cl)cccc2Cl)cc1 (stereo unspecified)  Peroxisome proliferator-activated receptor delta (Homo sapiens) (UniProt Q03181)  inactive

Attribution: PubChem BioAssay (Tox21)
